Origin of the recorded values: PubChem BioAssay (NCI)

tested on: OVCAR-8 ovarian; experiment: NCI tumour cell line growth inhibition, 48 h
Entries and their GI50 values follow.

These recorded examples may help you get a feel for the data.
compound | tested.system | GI50
N=c1c2c(=N)n3c(nc2nc2n1-c1ccccc1Sc1ccccc1-2)sc1cc(Cl)ccc13 | OVCAR-8 ovarian | 3.1 µM
CCCCCCCCCCCCCC[C@@H](O)[C@H]1CC[C@H]([C@H]2CC[C@H]([C@H](O)CCCCCC[C@@H](O)CC3=C[C@H](C)OC3=O)O2)O1 | OVCAR-8 ovarian | > 25 µM
c1cc2c(cn1)Nc1ccncc1S2 | OVCAR-8 ovarian | 35.7 µM
COc1ccc(N=N/C(C(=O)C(F)(F)F)=C(\O)c2ccc(Cl)cc2)cc1 | OVCAR-8 ovarian | 10.7 µM
CSc1ccc2c(c1)C(N1CCN(C)CC1)Cc1ccccc1S2 (configuration not stated) | OVCAR-8 ovarian | 2.07 µM
O=C1/C=C/[C@@H](O)[C@@H]2C[C@@H](O)C[C@H]2/C=C/CCC[C@H](C(F)(F)F)O1 | OVCAR-8 ovarian | 0.254 µM

Continue with the compound presented below.
Memo: COc1cccc(/C=C2\COc3ccc(-c4ccccc4)cc3C2=O)c1 , reported GI50: 2.21 µM
